B1: tRNA (parent)
chain: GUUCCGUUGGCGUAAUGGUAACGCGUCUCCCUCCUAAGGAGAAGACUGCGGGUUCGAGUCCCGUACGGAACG

variants of: B1; experiment: yeast fitness relative to wild type (ratio to wild type); higher = fitter; tRNA-Arg(CCU), competitive growth, 37 C, YPD
This sample holds only a part of the variants without activity.
MEASURED_ATTRIBUTE: yeast fitness

Qu. # yeast fitness lookup, item C5U U16A G38A A42G U64G
Ans. ≤ 0.5

Qu. Consider next the variant G25C C34U G56A in the same way.
Ans. ≤ 0.5

Qu. Consider next the variant U7A A69U in the same way.
Ans. 0.759

Qu. Consider next the variant C5U U16C C31A G67C in the same way.
Ans. ≤ 0.5

Qu. Consider next the variant G17A C31A G48C in the same way.
Ans. ≤ 0.5

Qu. Consider next the variant G10C G25A U64C in the same way.
Ans. ≤ 0.5

Qu. Consider next the variant G17A A20C G44C in the same way.
Ans. 0.617

Qu. Consider next the variant C11U C33U in the same way.
Ans. 0.724

Qu. Consider next the variant C4G A14C C24G U53C C62G in the same way.
Ans. ≤ 0.5

Qu. Consider next the variant U3G G68A in the same way.
Ans. 0.851

Qu. Consider next the variant A15C A20G G51A C55G in the same way.
Ans. 0.532

Qu. Consider next the variant C5G A21G C33A G68C A69U in the same way.
Ans. ≤ 0.5

Qu. Consider next the variant A21C G68C A69U in the same way.
Ans. ≤ 0.5

Qu. Consider next the variant G17C C33U in the same way.
Ans. 0.556

Qu. Consider next the variant G12A C24A A36U A37G C61U G67U in the same way.
Ans. ≤ 0.5

Qu. Consider next the variant A14U G17A C22U C33G G67U in the same way.
Ans. 0.613

Qu. Consider next the variant U3C G6C U7G C24G C27A U28A G41A in the same way.
Ans. 0.618

Qu. Consider next the variant G12A C24G C29A in the same way.
Ans. ≤ 0.5

Qu. Consider next the variant G6A A21G C46A C55U G56A in the same way.
Ans. ≤ 0.5

Qu. Consider next the variant A20G C22G C27G C30U C31G G51C C61G in the same way.
Ans. ≤ 0.5

Qu. Consider next the variant C30U A45U in the same way.
Ans. 0.955

Qu. Consider next the variant G6A C31U G63A in the same way.
Ans. 0.582

Qu. Consider next the variant C5G G9C A43G in the same way.
Ans. 0.667

Qu. Consider next the variant G63C A65U A70U in the same way.
Ans. 0.558

Qu. Consider next the variant U8C A15C U32C in the same way.
Ans. ≤ 0.5

Qu. Consider next the variant U19G A20U A69U in the same way.
Ans. 0.86
